tested_system: PD-1/PD-L1 (Homo sapiens (Human), UniProt Q9NZQ7)
Sequence (Q9NZQ7 19-238): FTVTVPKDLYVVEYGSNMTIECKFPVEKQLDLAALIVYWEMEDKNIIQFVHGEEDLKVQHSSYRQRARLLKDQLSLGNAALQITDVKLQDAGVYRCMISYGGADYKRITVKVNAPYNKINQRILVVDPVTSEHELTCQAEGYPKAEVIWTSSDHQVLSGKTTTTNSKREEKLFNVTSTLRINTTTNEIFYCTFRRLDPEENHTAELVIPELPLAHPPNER
measurement_protocol: PD-1/PD-L1 biochemical protein-protein interaction assay (ALPHA)
condition_parameters: 0.3 nM His tagged PD-L1, 2.5 nM biotinylated Fc-PD-1, 60 minutes at 25° C., read-out: IC50 PD-L1-PD1
pIC50: −log10 of the molar value.
measurement_label: pIC50

Some solved cases for reference:
COc1nc(-c2cccc(-c3cccc(-c4cnc(CNC[C@@H]5CCC(=O)N5)c(OC)n4)c3Br)c2Br)cnc1CNC[C@@H]1CCC(=O)N1 = 9.68
COc1nc(-c2cccc(-c3cccc(-c4cnc(CN(C)[C@H]5CCOC5)c(OC)n4)c3Cl)c2Cl)cnc1CNC[C@@H]1CCC(=O)N1 = 9.60
COc1nc(-c2cccc(-c3cccc(-c4cnc(CN[C@@H]5CNC(=O)C5)c(OC)n4)c3Cl)c2Cl)cnc1CNC[C@H]1CCC(=O)N1 = 9.90

[P] COc1nc(-c2cccc(-c3cccc(-c4cnc(CNC[C@@H]5CCC(=O)N5)c(OC)n4)c3Cl)c2Cl)cnc1CNCC1CCN(C(N)=O)C1 (stereo partly drawn)
[Q] CCn1cc(CN2CC(O)C2)c2ncc(-c3cccc(-c4cccc(-c5cnc(CN6CC(O)C6)c(OC)n5)c4Cl)c3Cl)nc21
Endpoint returns the identifier whose pIC50 is numerically larger, either P or Q . Refer to your chosen entry by its label in the reply. P

====

tested_system: PD-1/PD-L1 (Homo sapiens (Human), UniProt Q9NZQ7)
measurement_protocol: PD-1/PD-L1 biochemical protein-protein interaction assay (ALPHA)
condition_parameters: 0.3 nM His tagged PD-L1, 2.5 nM biotinylated Fc-PD-1, 60 minutes at 25° C., read-out: IC50 PD-L1-PD1
pIC50: −log10 of the molar value.
measurement_label: pIC50

Some solved cases for reference:
COc1nc(-c2cccc(-c3cccc(-c4cnc(CNC[C@@H]5CCC(=O)N5)c(OC)n4)c3Cl)c2Cl)ccc1CN1CC(CO)C1 [compound 157] = 10.19
COc1nc(-c2cccc(-c3cccc(-c4cnc(CN5C[C@H]6C[C@H]6[C@H]5CO)c(OC)n4)c3Cl)c2Cl)cnc1CNC[C@@H]1CCC(=O)N1 [compound 187] = 9.55
COc1nc(-c2cccc(-c3cccc(-c4cnc(CN[C@H]5C[C@H]5CO)c(OC)n4)c3Cl)c2Cl)cnc1CNC[C@@H]1CCC(=O)N1 [compound 268] = 9.45
COc1nc(-c2cccc(-c3cccc(-c4cnc(CN5CC[C@H](C(C)(C)O)C5)c(OC)n4)c3Cl)c2Cl)cnc1CN1CC[C@H](C(C)(C)O)C1 [compound 500] = 9.63
COc1nc(-c2cccc(-c3cccc(-c4cnc(CNC5CC6(C5)CN(C(C)=O)C6)c(OC)n4)c3Cl)c2Cl)cnc1CNC1CC2(C1)CN(C(C)=O)C2 (stereo not drawn) [compound 190] = 9.70

[a] CCc1nc(-c2cccc(-c3cccc(-c4cnc(CN5CC6(CNC(=O)C6)C5)c(CC)n4)c3Cl)c2Cl)cnc1CN1CC2(CNC(=O)C2)C1 [compound 83]
[b] COc1nc(-c2cccc(-c3cccc(-c4cnc(CNC[C@@H]5CCC(=O)N5)c(OC)n4)c3Cl)c2Cl)cnc1CNCC1COC(=O)N1 (stereo partly drawn) [compound 281]
[c] COc1nc(-c2cccc(-c3cccc(-c4cnc(CNC[C@@H]5CCC(=O)N5)c(OC)n4)c3Cl)c2Cl)ccc1CN[C@H]1CCOC1 [compound 171]
[d] COc1nc(-c2cccc(-c3cccc(-c4cnc(CN5CC(F)(CO)C5)c(OC)n4)c3Cl)c2Cl)cnc1CNC[C@@H]1CCC(=O)N1 [compound 252]
List these items ordered by pIC50, big to small. # list labels per requested ordering d, c, a, b
(d: 10.22, c: 9.68, a: 9.25, b: 8.92)

[a] COc1nc(-c2cccc(-c3cccc(-c4cnc(CNC[C@H]5C[C@](C)(O)C5)c(OC)n4)c3Cl)c2Cl)cnc1CNC[C@H]1C[C@](C)(O)C1 [compound 563]
[b] COc1nc(-c2cccc(-c3cccc(-c4cnc(CNC[C@@H]5CCC(=O)N5)c(OC)n4)c3Cl)c2Cl)cnc1CNCC1CN(S(C)(=O)=O)C1 [compound 547]
Endpoint returns the identifier whose pIC50 is numerically larger, either a or b . Refer to your chosen entry by its label in the reply. b
